Data credit: patent US20250230147A1

Biological target: UniProt Q13191
Sequence (Q13191 40-426): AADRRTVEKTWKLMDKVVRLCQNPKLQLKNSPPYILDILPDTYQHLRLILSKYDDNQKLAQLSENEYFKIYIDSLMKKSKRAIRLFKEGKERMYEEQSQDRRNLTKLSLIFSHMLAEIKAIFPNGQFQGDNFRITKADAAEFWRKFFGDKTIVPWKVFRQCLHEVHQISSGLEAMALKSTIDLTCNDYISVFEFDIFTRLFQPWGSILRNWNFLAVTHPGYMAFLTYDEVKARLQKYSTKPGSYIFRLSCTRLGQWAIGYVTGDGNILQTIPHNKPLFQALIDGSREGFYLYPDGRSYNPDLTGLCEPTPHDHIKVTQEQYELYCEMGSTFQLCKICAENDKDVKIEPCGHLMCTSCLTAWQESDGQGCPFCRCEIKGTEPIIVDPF
Experiment: Cbl-b LCK Ub TR-FRET assay (Cbl-b Lck HTRF)
Assay type: biochemical
Conditions: formate
Structures can show the parent of a compound that is named as a salt.

{"compound": "CN1CC2CC(C1)N2Cc1cc2c(c(C(F)(F)F)c1)CN(c1cccc(C3(Cc4nncn4C)CC(F)(F)C3)c1)C2=O [Compound 413, formate]", "IC50": "56 nM"}

----------
Molecular target: c-Cbl (Homo sapiens (Human), UniProt P22681)
Sequence (P22681 47-435): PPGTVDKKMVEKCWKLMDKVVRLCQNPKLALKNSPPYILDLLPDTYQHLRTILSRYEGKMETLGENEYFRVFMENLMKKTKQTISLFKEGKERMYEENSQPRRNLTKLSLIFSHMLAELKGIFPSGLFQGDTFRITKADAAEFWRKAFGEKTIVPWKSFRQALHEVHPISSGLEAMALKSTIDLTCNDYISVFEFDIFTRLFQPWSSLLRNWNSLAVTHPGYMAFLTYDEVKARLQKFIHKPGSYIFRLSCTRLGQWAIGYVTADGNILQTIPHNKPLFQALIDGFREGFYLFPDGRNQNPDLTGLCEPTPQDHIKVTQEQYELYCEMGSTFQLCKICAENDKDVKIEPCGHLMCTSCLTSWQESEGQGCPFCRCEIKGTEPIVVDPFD
Assay: C-Cbl LCK Ub TR-FRET assay (c-cbl Lck HTRF)
Type: biochemical
pIC50: −log10 of the molar value. Structures can show the parent of a compound that is named as a salt.

{"molecule": "Cn1cnnc1[C@H](F)C1(c2cccc(N3Cc4c(cc(CNC5(C)CCC5)cc4C(F)F)C3=O)c2)COC1 [Compound 249, formate]", "pIC50": 7.70}
{"molecule": "Cn1cnnc1CC1(c2cccc(N3Cc4c(cc(CN5CCNCC5)cc4C(F)(F)F)C3=O)c2)CC(F)(F)C1", "pIC50": 6.05}
{"molecule": "Cn1cnnc1CC1(c2cc(NC3CCC(F)(F)C3)nc(N3Cc4c(cccc4C(F)(F)F)C3=O)c2)COC1 (stereo not shown)", "pIC50": 4.70}
{"molecule": "Cn1cnnc1CC1(c2cccc(N3Cc4c(cc(CN5CCC6(CC6)C5)cc4C(F)(F)F)C3=O)c2)CC(F)(F)C1", "pIC50": 7.82}
